Assay: Oral bioavailability of BA–PC–SMEDDS and BA suspensions
Conditions: both, Sprague-Dawley, rat, in vivo, 75 mg
EXPERIMENTAL ENDPOINT: Tmax (h)
One number for each entry, in h.

q: Consider the compound O=C(O)[C@H]1O[C@@H](Oc2cc3oc(-c4ccccc4)cc(=O)c3c(O)c2O)[C@H](O)[C@@H](O)[C@@H]1O and give its measured Tmax.
a: 1.5

* * *

Assay: Oral bioavailability of BA–PC–SMEDDS and BA suspensions
Conditions: both, Sprague-Dawley, rat, in vivo, 75 mg
EXPERIMENTAL ENDPOINT: Cmax (ng/mL)
One number for each entry, in ng/mL.

q: // query Cmax value for entry O=C(O)[C@H]1O[C@@H](Oc2cc3oc(-c4ccccc4)cc(=O)c3c(O)c2O)[C@H](O)[C@@H](O)[C@@H]1O
a: 1840

* * *

Experiment: Caco-2 cell permeation study
Format: in vitro ADME
Settings: human, Caco-2, pH 6.8
EXPERIMENTAL ENDPOINT: efflux ratio at 180 min, 187.5 μg/mL
One number for each entry.

q: # query: efflux ratio at 180 min, 187.5 μg/mL of entry O=C(O)[C@H]1O[C@@H](Oc2cc3oc(-c4ccccc4)cc(=O)c3c(O)c2O)[C@H](O)[C@@H](O)[C@@H]1O
a: 3.07

* * *

Experiment: Solubility of BA and BA–PC in water or octanol
Type: physicochemical
Conditions: octanol, 37 °C, organic solvent or mixture, thermodynamic from solid
EXPERIMENTAL ENDPOINT: solubility at 48 h (µg/mL)
Give bare numbers, in µg/mL.

q: // lookup solubility at 48 h for O=C(O)[C@H]1O[C@@H](Oc2cc3oc(-c4ccccc4)cc(=O)c3c(O)c2O)[C@H](O)[C@@H](O)[C@@H]1O
a: 136

* * *

Test: Caco-2 cell permeation study
Type: in vitro ADME
Conditions: human, Caco-2, pH 6.8
EXPERIMENTAL ENDPOINT: Papp A→B at 180 min, 187.5 μg/mL
Show the value, then the unit it is measured in.

q: I'd like to know its Papp A→B at 180 min, 187.5 μg/mL. The molecule in question is O=C(O)[C@H]1O[C@@H](Oc2cc3oc(-c4ccccc4)cc(=O)c3c(O)c2O)[C@H](O)[C@@H](O)[C@@H]1O
a: 0.119 ×10⁻⁶ cm/s
